# study.target: furin, P09958;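 also: purified furin at 1:10 enzyme:substrate in 50 mM HEPES pH 7.5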
# Sequence (P09958 whole entry): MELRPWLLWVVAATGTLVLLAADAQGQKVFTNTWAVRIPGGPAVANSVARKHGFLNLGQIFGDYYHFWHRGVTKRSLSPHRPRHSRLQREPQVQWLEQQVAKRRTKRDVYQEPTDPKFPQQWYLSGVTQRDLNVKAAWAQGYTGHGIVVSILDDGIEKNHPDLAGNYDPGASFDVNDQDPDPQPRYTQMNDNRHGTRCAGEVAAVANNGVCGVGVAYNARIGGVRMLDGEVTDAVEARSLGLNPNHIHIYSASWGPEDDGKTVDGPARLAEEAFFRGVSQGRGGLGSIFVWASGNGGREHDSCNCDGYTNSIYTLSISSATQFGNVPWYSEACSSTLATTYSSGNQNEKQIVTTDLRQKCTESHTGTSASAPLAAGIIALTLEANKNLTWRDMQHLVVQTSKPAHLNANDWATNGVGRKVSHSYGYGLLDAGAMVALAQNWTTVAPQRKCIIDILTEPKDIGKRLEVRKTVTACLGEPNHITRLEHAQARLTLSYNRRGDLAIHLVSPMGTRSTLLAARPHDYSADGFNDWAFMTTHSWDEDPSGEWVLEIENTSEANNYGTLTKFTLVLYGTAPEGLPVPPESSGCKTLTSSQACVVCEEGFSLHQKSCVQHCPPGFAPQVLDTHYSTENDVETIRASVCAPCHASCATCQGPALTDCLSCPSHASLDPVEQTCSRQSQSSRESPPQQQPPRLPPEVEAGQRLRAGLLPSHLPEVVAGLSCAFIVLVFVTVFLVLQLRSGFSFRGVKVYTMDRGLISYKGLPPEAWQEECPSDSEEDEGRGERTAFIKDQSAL
# protocol.description: furin cleavage Z-score vs untreated control; higher = more cleavage, active = 3.5 or more, inactive = 1 or less, 8 variable residues between constant flanks
# conditions: 30 min
The list shows a part of the results. How many sequences the whole screen found active is unknown.
Measured furin cleavage Z-score, listed per entry for reference.
measurement.kind: furin cleavage Z-score

sequence="CALPIRRKRSAGNASASA [FS-1028]" measurement_kind="furin cleavage Z-score" obs_value=9.29
sequence="CAGKELRKRSAGNASASA [FS-998]" measurement_kind="furin cleavage Z-score" obs_value=6.7
sequence="CACCCRRKRSAGNASASA [FS-118]" measurement_kind="furin cleavage Z-score" obs_value=6.41
sequence="CAMEVLRKRSAGNASASA [FS-911]" measurement_kind="furin cleavage Z-score" obs_value=0.754
sequence="CANIEEVALSAGNASASA [HC841]" measurement_kind="furin cleavage Z-score" obs_value=-1.19
sequence="CASTCCSAHLAGNASASA [HC2520]" measurement_kind="furin cleavage Z-score" obs_value=-0.184
sequence="CATLERRKRSAGNASASA [FS-1172]" measurement_kind="furin cleavage Z-score" obs_value=8.54
